Molecular target: angiotensin-converting enzyme (ACE) (Oryctolagus cuniculus, UniProt P12822)
Construct: purchased Wako Jun-yaku A6778 (Lot No.)
Sequence (P12822 34-1310): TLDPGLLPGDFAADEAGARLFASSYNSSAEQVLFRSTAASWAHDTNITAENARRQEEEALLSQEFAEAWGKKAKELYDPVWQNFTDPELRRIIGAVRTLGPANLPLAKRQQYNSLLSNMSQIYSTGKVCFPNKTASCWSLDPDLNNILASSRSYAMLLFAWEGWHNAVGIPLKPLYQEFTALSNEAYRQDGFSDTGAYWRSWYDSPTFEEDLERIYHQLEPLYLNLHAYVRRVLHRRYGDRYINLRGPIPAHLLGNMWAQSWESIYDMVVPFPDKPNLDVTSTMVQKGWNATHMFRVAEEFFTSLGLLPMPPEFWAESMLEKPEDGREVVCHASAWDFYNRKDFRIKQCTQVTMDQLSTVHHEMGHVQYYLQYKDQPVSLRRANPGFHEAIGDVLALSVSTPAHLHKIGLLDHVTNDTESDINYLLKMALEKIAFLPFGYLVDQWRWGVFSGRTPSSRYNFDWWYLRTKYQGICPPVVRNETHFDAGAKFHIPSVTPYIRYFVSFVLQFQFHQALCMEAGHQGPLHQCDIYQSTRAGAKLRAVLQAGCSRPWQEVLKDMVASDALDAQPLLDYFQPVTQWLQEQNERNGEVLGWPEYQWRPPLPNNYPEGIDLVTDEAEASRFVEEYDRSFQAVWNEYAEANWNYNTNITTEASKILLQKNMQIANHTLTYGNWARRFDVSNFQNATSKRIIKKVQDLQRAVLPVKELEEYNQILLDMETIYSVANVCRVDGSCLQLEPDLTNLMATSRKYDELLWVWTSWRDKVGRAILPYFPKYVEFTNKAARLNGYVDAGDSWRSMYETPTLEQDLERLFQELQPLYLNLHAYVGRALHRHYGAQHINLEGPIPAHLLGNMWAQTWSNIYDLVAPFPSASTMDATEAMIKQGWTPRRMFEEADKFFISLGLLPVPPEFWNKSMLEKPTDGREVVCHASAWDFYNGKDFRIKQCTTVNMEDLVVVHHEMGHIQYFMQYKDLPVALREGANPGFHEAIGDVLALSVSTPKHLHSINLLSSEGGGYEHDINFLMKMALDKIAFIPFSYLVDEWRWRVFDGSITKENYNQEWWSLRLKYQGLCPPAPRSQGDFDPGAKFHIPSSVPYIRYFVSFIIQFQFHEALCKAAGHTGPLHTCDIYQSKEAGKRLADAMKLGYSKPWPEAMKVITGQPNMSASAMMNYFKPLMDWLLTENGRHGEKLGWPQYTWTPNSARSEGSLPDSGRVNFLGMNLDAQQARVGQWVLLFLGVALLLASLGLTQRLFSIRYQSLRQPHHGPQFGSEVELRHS
Test: ACE inhibiting activity (Hip-His-Leu substrate, liberated hippuric acid OD at 228 nm)
Type: biochemical
Details: final sample concentration 30 mM
reported property: ACE Inhibiting Activity (%)
Field format: number, assumed %, no unit text.

IN: Returns the measured ACE Inhibiting Activity (%) for the input compound. Input: "OC[C@H]1O[C@H](O[C@H]2O[C@H](CO)[C@@H](O)[C@H](O)[C@H]2O)[C@H](O)[C@@H](O)[C@@H]1O"
OUT: 1.2

IN: Entry OC[C@H]1O[C@@H](O[C@H]2C(O)O[C@H](CO)[C@@H](O)[C@@H]2O)[C@H](O)[C@@H](O)[C@@H]1O (some centres unmarked) : reported ACE Inhibiting Activity (%) = ?
OUT: 3.0

IN: Entry "OC[C@H]1O[C@@H](O[C@@H]2O[C@H](CO)[C@@H](O)[C@H](O)[C@H]2O)[C@H](O)[C@@H](O)[C@@H]1O" : reported ACE Inhibiting Activity (%) = ?
OUT: 0.6

IN: Fill in: ACE Inhibiting Activity (%) of "OC[C@H]1O[C@@H](O[C@H]2O[C@H](CO)[C@@H](O)[C@H](O)[C@H]2O)[C@H](O)[C@@H](O)[C@@H]1O" is ___
OUT: 1.6

IN: # input compound: OC[C@H]1O[C@@H](O[C@H]2[C@H](O)[C@@H](CO)OC(O)[C@@H]2O)[C@H](O)[C@@H](O)[C@@H]1O (some centres unmarked) ; wanted: its ACE Inhibiting Activity (%)
OUT: 0.8
